Recorded IC50 values for a group of compounds are listed next.
target: Induced myeloid leukemia cell differentiation protein Mcl-1 (Homo sapiens, UniProt Q07820); assay type: functional
Sequence (Q07820 whole entry): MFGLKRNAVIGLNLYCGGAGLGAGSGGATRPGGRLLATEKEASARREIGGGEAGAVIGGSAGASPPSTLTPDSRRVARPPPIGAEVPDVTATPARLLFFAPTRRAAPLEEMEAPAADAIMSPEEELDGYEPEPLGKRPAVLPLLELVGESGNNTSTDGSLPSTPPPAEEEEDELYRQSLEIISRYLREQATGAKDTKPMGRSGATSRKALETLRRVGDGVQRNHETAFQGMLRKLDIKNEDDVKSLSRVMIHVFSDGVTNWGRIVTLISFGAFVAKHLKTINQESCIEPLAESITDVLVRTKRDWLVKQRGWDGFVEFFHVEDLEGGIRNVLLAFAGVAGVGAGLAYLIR
Active and inactive are the calls of the source.

These recorded examples may help you get a feel for the data.
Compound Structure String: COc1cc(-c2nnc(SCc3cc(=O)oc4cc(O)c(O)cc34)o2)cc(OC)c1OC
Target Desc: Induced myeloid leukemia cell differentiation protein Mcl-1 (Homo sapiens, UniProt Q07820)
Observable: IC50
Test Value: 3.77 µM (active)
--
Compound Structure String: C=CCN1C(=O)/C(=C2/C(=O)N(CC(=O)O)c3ccccc32)S/C1=N/c1nccs1
Target Desc: Induced myeloid leukemia cell differentiation protein Mcl-1 (Homo sapiens, UniProt Q07820)
Observable: IC50
Test Value: 2.78 µM (active)
--
Compound Structure String: O=C(O)c1ccc(N/N=C/c2ccc(-c3ccc(Cl)cc3Cl)o2)cc1
Target Desc: Induced myeloid leukemia cell differentiation protein Mcl-1 (Homo sapiens, UniProt Q07820)
Observable: IC50
Test Value: 3.56 µM (active)

input: Item: "COc1ccc(C(=O)C[n+]2ccc(-c3nnc4n3CCCCC4)cc2)cc1" Test system: Induced myeloid leukemia cell differentiation protein Mcl-1 (Homo sapiens, UniProt Q07820) Read-out: IC50 Value: ?
output: > 54 µM (active)

input: Recall the recorded IC50 for "CC(=O)c1ccc(-n2c(CCC(=O)O)ccc2-c2cccs2)cc1" with Induced myeloid leukemia cell differentiation protein Mcl-1 (Homo sapiens, UniProt Q07820) and state it.
output: 9.23 µM (not active)

input: What IC50 appears in the records for this compound with Induced myeloid leukemia cell differentiation protein Mcl-1 (Homo sapiens, UniProt Q07820)? "C/C(=C\c1ccco1)C1Nc2cccc3cccc(c23)N1"
output: 8.61 µM (active)

input: Find the measured IC50: item "N#CC(C#N)=NNc1ccc(S(N)(=O)=O)cc1" , target or system Induced myeloid leukemia cell differentiation protein Mcl-1 (Homo sapiens, UniProt Q07820).
output: 4.71 µM (active)

input: Form field - read-out: IC50; system: Induced myeloid leukemia cell differentiation protein Mcl-1 (Homo sapiens, UniProt Q07820); submitted item: "O=C(N/N=C/c1ccncc1)c1cc([N+](=O)[O-])cc([N+](=O)[O-])c1O"
output: 3.25 µM (active)

input: Tell me reported IC50 for "COc1cc(OC)c2c(O)c3c(c(-c4c5c(c(O)c6c(OC)cc(OC)cc46)CO[C@@H](C)[C@H]5O)c2c1)[C@H](O)[C@H](C)OC3" , tested with Induced myeloid leukemia cell differentiation protein Mcl-1 (Homo sapiens, UniProt Q07820).
output: 2.51 µM (not active)

input: Lab request: please report IC50 under test system Induced myeloid leukemia cell differentiation protein Mcl-1 (Homo sapiens, UniProt Q07820) for "O=c1c(/C=N/c2cc(O)nc(S)n2)coc2c1ccc1ccccc12"
output: 4.68 µM (active)

The reported numbers originate from ChEMBL document CHEMBL1201862.
